Measured On: cloned mouse δ receptor (Mus musculus, UniProt P32300)
Construct: expressed in transfected cells
Sequence (P32300 whole entry): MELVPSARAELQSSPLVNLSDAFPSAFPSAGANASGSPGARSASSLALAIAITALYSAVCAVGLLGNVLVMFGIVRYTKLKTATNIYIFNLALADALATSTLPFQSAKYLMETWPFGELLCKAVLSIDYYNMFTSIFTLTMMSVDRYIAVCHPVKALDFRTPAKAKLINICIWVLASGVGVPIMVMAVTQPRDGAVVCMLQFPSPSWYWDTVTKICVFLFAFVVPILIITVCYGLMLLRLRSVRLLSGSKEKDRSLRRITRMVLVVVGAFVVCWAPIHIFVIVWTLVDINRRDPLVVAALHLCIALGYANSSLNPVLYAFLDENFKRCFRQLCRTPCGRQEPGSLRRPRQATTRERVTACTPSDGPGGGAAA
Method Notes: biochemical
Type: binding
Property Label: Ki (nM)
Lab book: enter the figure in nM, no units written.

Take a look at these entries with their results.
Molecule	Value Observed
CCC12CCN(CC3(O)CC3)C(Cc3ccc(O)cc31)C2(C)C (racemic)	2.3
CC[C@]12CCN(CC3CC3)[C@H](C(=O)c3ccc(O)cc31)[C@@H]2C	101
CC(C)=CCN1CCC2(C)c3cc(O)ccc3CC1C2C (centres unmarked)	31

// Ki lookup, key: CN1CC[C@]23CCCC[C@H]2[C@H]1Cc1ccc(O)cc13 5

---

Measured On: wild-type mouse delta opioid receptor (Mus musculus)
Construct: expressed in transfected cells; host or cells: COS-7 (transient, pCMV6c)
Sequence (P32300 whole entry): as the sequence (P32300 whole entry) above
Method Notes: biochemical
Format: binding
Measurement Setup: read-out: Potencies of Agonists to Bind, Wild-type (Ki values in nM)
Property Label: Ki

// Ki lookup, key: CN1CC[C@]23c4c5ccc(O)c4O[C@H]2C(=O)C2(Cc4ccccc4C2)C[C@@]3(O)[C@H]1C5 [SIOM, 7-spiroindino-oxymorphone] 46 nM

---

Measured On: D128N mutant mouse delta opioid receptor (Mus musculus, UniProt P32300, D128N)
Construct: expressed in transfected cells; host or cells: COS-7 (transient, pCMV6c)
Sequence (P32300 whole entry D128N): as the sequence (P32300 whole entry) above, with D128N counted along it
Method Notes: biochemical
Format: binding
Measurement Setup: read-out: Potencies of Antagonist binding, D128N mutant (Ki values in nM)
Property Label: Ki (nM)
Lab book: enter the figure in nM, no units written.

// Ki lookup, key: Oc1ccc2c3c1O[C@H]1c4oc5ccccc5c4C[C@@]4(O)[C@@H](C2)N(CC2CC2)CC[C@]314 0.07

---

Measured On: cloned mouse κ receptor (Mus musculus, UniProt P33534)
Construct: expressed in transfected cells
Method Notes: biochemical
Type: binding
Property Label: Ki (nM)
Lab book: enter the figure in nM, no units written.

Take a look at these entries with their results.
Compound	Ki [nM]
CCC12CCN(CC3(O)CC3)C(Cc3ccc(O)cc31)C2(C)C (racemic)	0.089
C=CCN1CC[C@]23c4c5ccc(O)c4O[C@H]2[C@@H](O)C=C[C@H]3[C@H]1C5	1.1

Consider now this further compound.
// Ki lookup, key: CN1CC[C@]23CCCC[C@H]2[C@H]1Cc1ccc(O)cc13 6.5

---

Measured On: cloned rat μ receptor (Rattus norvegicus, UniProt P33535)
Construct: expressed in transfected cells; host or cells: COS-7 (transient)
Sequence (P33535 whole entry): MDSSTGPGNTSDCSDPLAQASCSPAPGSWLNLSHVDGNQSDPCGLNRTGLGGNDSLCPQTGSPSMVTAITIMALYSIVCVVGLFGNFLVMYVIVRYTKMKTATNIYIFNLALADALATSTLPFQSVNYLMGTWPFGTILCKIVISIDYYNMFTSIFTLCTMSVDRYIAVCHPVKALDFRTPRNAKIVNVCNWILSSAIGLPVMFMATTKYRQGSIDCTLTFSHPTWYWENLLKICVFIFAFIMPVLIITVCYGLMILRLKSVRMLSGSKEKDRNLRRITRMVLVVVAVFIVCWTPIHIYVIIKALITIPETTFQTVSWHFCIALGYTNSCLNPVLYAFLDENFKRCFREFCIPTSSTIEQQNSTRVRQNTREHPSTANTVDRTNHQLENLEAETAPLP
Method Notes: biochemical
Type: binding
Measurement Setup: read-out: Binding potencies (Ki-nM) μ RECEPTOR [^3H] DAMGO
Entries and their Ki
Lab book: enter the figure in nM, no units written.

// Ki lookup, key: Oc1ccc2c3c1O[C@H]1c4oc5ccccc5c4C[C@@]4(O)[C@@H](C2)N(CC2CC2)CC[C@]314 12

// Ki lookup, key: CN1CC[C@]23c4c5ccc(O)c4O[C@H]2C(=O)C2(Cc4ccccc4C2)C[C@@]3(O)[C@H]1C5 33

// Ki lookup, key: O=C1/C(=C/c2ccccc2)C[C@@]2(O)[C@H]3Cc4ccc(O)c5c4[C@@]2(CCN3CC2CC2)[C@H]1O5 [BNTX, 7-Benyllidenenaltrexone] 18

// Ki lookup, key: COC(=O)/C=C/C(=O)N[C@@H]1CC[C@@]2(O)[C@H]3Cc4ccc(O)c5c4[C@@]2(CCN3CC2CC2)[C@H]1O5 0.33

---

Measured On: D128N mutant mouse delta opioid receptor (Mus musculus, UniProt P32300, D128N)
Method Notes: Forskolin-stimulated cAMP accumulation, COS-7 cells, D128N mutant
Property Label: pEC50
A value of pEC50 is the negative decimal logarithm of a concentration given in moles per litre.

// pEC50 lookup, key: CCC12CCN(CC3(O)CC3)C(Cc3ccc(O)cc31)C2(C)C (racemic) 7.10

---

Measured On: κ1-78/δ70-372 chimeric receptor (Mus musculus, UniProt P32300+P33534, A193I/A281G/D128E/D204G/D206V/DEL208-209/DEL216-217/DEL300-312/E203D/E218S/E297A/F225V/F314L/G197A/G198V/I133A/I135L/I177L/I191V/I194M/I237V/I243T/I250L/I284V/I285V/I294L/I85V/INS221Y/INS293VIVWTLVDINRRDP/K200Q/K254R/K274R/L173A/L184V/L196M/L224T/L275M/L295V/M112L/M226T/M90L/N122E/N268S/R263K/S123T/S188G/S192P/S211M/T110S/T247G/T288A/T321A/V108A/V118K/V129L/V201P/V205A/V232L/V239I/V282A/V83G/Y219P/Y313H)
Sequence (P33534+P32300 fused with the stated changes): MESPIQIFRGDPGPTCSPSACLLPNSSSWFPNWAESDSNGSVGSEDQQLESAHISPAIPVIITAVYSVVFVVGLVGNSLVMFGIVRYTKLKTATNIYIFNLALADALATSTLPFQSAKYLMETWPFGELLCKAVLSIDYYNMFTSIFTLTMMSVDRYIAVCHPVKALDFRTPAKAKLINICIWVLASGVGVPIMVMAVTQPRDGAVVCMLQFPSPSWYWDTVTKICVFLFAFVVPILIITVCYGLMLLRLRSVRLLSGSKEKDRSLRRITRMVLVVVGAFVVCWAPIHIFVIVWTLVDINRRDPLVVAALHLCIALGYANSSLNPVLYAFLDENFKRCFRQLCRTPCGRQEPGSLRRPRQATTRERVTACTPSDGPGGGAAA
Method Notes: biochemical
Property Label: IC50

// IC50 lookup, key: Oc1ccc2c3c1O[C@H]1c4[nH]c5ccccc5c4C[C@@]4(O)[C@@H](C2)N(CC2CC2)CC[C@]314 0.25 nM

---

Entries and their pKi
Measured On: cloned mouse κ receptor (Mus musculus)
Construct: expressed in transfected cells
Method Notes: biochemical
Format: binding
A value of pKi is the negative decimal logarithm of a concentration given in moles per litre.

Given Smiles	pKi
Oc1ccc2c3c1O[C@H]1c4[nH]c5ccccc5c4C[C@@]4(O)[C@@H](C2)N(CC2CC2)CC[C@]314	7.18

Consider now this further compound.
// pKi lookup, key: Oc1ccc2c3c1O[C@H]1c4[nH]c5c(c4C[C@@]4(O)[C@@H](C2)N(CC2CC2)CC[C@]314)C[C@@]1(O)[C@H]2Cc3ccc(O)c4c3[C@@]1(CCN2CC1CC1)[C@H]5O4 10.57

---

Measured On: H278N mutant mouse delta opioid receptor (Mus musculus, UniProt P32300, H278N)
Construct: expressed in transfected cells; host or cells: COS-7 (transient, pCMV6c)
Sequence (P32300 whole entry H278N): as the sequence (P32300 whole entry) above, with H278N counted along it
Method Notes: biochemical
Type: binding
Measurement Setup: read-out: Potencies of Agonists to Bind, H278N mutant (Ki values in nM)
Property Label: Ki (nM)
Lab book: enter the figure in nM, no units written.

// Ki lookup, key: CN1CC[C@]23c4c5ccc(O)c4O[C@H]2C(=O)C2(Cc4ccccc4C2)C[C@@]3(O)[C@H]1C5 [SIOM, 7-spiroindino-oxymorphone] 1.8

---

Measured On: cloned mouse δ receptor (Mus musculus, UniProt P32300)
Construct: expressed in transfected cells
Method Notes: biochemical
Type: binding
Measurement Setup: read-out: Binding potencies (Ki-nM) δ RECEPTOR [^3H] naltrindole
Property Label: Ki (nM)
Lab book: enter the figure in nM, no units written.

Take a look at these entries with their results.
> print(dat)
                                   compound                               measured.on  property.label  value.observed
1  Oc1ccc2c3c1O[C@H]1c4oc5ccccc5c4C[C@@]4(O)[C@@H](C2)N(CC2CC2)CC[C@]314  cloned mouse δ receptor (Mus musculus, UniProt P32300)              Ki           0.013
2  COC(=O)/C=C/C(=O)N[C@@H]1CC[C@@]2(O)[C@H]3Cc4ccc(O)c5c4[C@@]2(CCN3CC2CC2)[C@H]1O5  cloned mouse δ receptor (Mus musculus, UniProt P32300)              Ki              48

Consider now this further compound.
// Ki lookup, key: O=C1/C(=C/c2ccccc2)C[C@@]2(O)[C@H]3Cc4ccc(O)c5c4[C@@]2(CCN3CC2CC2)[C@H]1O5 [BNTX, 7-Benyllidenenaltrexone] 0.66

---

Measured On: cloned mouse κ receptor (Mus musculus)
Construct: expressed in transfected cells
Method Notes: biochemical
Assay type: binding
Measurement Setup: read-out: Binding potencies (Ki-nM) κ RECEPTOR [^3H] U-69, 593
Entries and their Ki
Lab book: enter the figure in nM, no units written.

// Ki lookup, key: Oc1ccc2c3c1O[C@H]1c4oc5ccccc5c4C[C@@]4(O)[C@@H](C2)N(CC2CC2)CC[C@]314 [NTB] 13

// Ki lookup, key: CN(C(=O)Cc1ccc(Cl)c(Cl)c1)C(CN1CCCC1)c1cccc(OCC(=O)O)c1 (centres unmarked) [ICI 204, 448] 0.71

// Ki lookup, key: COC(=O)/C=C/C(=O)N[C@@H]1CC[C@@]2(O)[C@H]3Cc4ccc(O)c5c4[C@@]2(CCN3CC2CC2)[C@H]1O5 [β-FNA, β-funaltrexamine] 2.8

// Ki lookup, key: O=C1/C(=C/c2ccccc2)C[C@@]2(O)[C@H]3Cc4ccc(O)c5c4[C@@]2(CCN3CC2CC2)[C@H]1O5 [BNTX, 7-Benyllidenenaltrexone] 55

---

Measured On: H278N mutant mouse delta opioid receptor (Mus musculus, UniProt P32300, H278N)
Method Notes: Forskolin-stimulated cAMP accumulation, COS-7 cells, H278N mutant
Property Label: pEC50
A value of pEC50 is the negative decimal logarithm of a concentration given in moles per litre.

// pEC50 lookup, key: CCC12CCN(CC3(O)CC3)C(Cc3ccc(O)cc31)C2(C)C (racemic) 8.82
